biological target: human soluble guanylate cyclase alpha 1 and beta 1 subunits (sGC) (Homo sapiens (Human), UniProt Q02108+Q02153); test: sGC cellular activator assay (cGMP, HTRF), in the presence and absence of 50% human serum; settings: CHO cells stably expressing human sGC alpha 1/beta 1, preincubated with 40 microM ODQ; cGMP by HTRF; Table 2 does not state whether with or without 50% human serum
Sequence (Q02108 whole entry partner): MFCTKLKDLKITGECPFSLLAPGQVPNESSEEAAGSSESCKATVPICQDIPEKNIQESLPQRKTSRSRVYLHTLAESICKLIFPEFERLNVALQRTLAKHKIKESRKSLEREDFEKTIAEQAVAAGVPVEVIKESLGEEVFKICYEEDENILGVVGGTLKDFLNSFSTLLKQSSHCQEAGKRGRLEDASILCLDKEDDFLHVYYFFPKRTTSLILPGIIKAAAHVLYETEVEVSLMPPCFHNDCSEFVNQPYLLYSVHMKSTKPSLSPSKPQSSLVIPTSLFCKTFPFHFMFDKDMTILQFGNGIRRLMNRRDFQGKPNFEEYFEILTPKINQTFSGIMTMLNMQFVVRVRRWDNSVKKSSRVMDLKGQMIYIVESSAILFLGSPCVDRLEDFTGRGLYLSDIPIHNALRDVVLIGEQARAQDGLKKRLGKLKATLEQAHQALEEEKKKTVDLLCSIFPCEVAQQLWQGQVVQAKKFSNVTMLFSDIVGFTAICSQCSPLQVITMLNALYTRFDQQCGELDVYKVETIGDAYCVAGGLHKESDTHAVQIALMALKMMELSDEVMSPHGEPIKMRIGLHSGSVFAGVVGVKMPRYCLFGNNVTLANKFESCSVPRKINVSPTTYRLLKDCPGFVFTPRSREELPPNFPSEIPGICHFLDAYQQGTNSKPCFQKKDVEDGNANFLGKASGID
Sequence (Q02153 whole entry): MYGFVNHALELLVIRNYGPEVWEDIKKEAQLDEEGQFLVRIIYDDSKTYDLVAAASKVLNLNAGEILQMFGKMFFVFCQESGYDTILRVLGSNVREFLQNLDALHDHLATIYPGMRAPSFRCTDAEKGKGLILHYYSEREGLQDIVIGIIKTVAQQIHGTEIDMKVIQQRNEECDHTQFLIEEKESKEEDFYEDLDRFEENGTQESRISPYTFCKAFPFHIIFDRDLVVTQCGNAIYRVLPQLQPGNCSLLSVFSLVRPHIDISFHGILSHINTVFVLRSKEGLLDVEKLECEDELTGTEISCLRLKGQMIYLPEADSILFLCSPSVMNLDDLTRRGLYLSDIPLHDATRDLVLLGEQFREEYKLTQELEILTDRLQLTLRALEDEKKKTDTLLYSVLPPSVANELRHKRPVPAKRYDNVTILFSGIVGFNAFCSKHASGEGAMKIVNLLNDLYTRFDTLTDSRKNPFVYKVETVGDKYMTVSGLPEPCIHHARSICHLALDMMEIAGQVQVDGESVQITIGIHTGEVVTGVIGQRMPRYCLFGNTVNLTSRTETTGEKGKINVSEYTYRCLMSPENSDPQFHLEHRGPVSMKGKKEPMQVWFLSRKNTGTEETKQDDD
READOUT_KIND: EC50 (nM)

COMPOUND	RESULT_VALUE
CO[C@H]1CN(c2nc(-c3cc(C)ccc3OCc3ccc4c(c3C)CCN(C3CCOCC3)C4=O)cs2)CC[C@H]1C(=O)O	33
Cc1cccc(-c2cccc(N3C[C@@H]4C[C@]4(C(=O)O)C3)n2)c1OCc1ccc2c(c1C)CCN(C1COC1)CC2	2
COc1ccc(OCc2ccc3c(c2C)CCN(C2CCOCC2)C3)c(-c2csc(N3CC[C@@]4(C(=O)O)C[C@H]4C3)n2)c1	25
O=C(O)[C@@]12CCN(c3cccc(-c4ccccc4OCc4ccc5c(c4)CCN(C4CCOCC4)C5)n3)C[C@@H]1C2	7
Cc1ccc(OCc2cc(C)c3c(c2C)CCN(C2CCOC2)C3)c(-c2csc(N3CC[C@@]4(C(=O)O)C[C@H]4C3)n2)c1 (stereo partly drawn)	6
CCO[C@H]1CN(c2cccc(-c3cc(C)ccc3OCc3cc4c(c(OC)c3)CN(C3CCOCC3)CC4)n2)CC[C@H]1C(=O)O	680
